- TEST: photoluminescence quantum yield (fraction); solvent given as SMILES
- PROTOCOL_CONDITIONS: in CO
PROPERTY_LABEL: photoluminescence quantum yield
Lab note: record just the number, no unit beside it.

Field request: photoluminescence quantum yield | item: O=C1C2=C(O[B-](F)(F)[n+]3c2ccc2ccccc23)c2cccc3c(N4CCOCC4)ccc1c23
0.44

Using the record for CNc1ncc2nc(C#N)n(Cc3ccccc3)c2n1 , report its photoluminescence quantum yield.
0.49

Returns the measured photoluminescence quantum yield for the input molecule. Input: N#Cc1ccc2c(c1)CCc1nc(-c3ccc([N+](=O)[O-])cc3)c3c(c1-2)CCc1cc(C#N)ccc1-3
0.01

What value of photoluminescence quantum yield has been recorded for this entry: COc1cc(/C=C/C(=O)CC(=O)/C=C/c2ccc(O)c(OC)c2)ccc1O
0.017

Give the measured photoluminescence quantum yield of COc1cc2c(cc1/C=C(\C#N)c1nc3ccccc3s1)c1ccccc1n2C .
0.001

Fill in: photoluminescence quantum yield of COC(=O)C([NH3+])Cc1ccc2oc(-c3ccncc3)nc2c1 (stereo not given) is ___
0.18

Record request: photoluminescence quantum yield value, item CCC1=C(C)C2=Cc3cccn3[B-](F)(F)[N+]2=C1C
0.6

What value of measured photoluminescence quantum yield is listed for CCC1=C(C)C2=Cc3c4ccccc4c4n3[B-](c3cc[n+](C)cc3)(Oc3ccccc3-4)[N+]2=C1C=Cc1ccc(OC)cc1 (stereo not given) ?
0.21

Look at this molecule and give its reported photoluminescence quantum yield. COC(=O)c1ccc2ccc3cccc4ccc1c2c34
0.69

Endpoint output: photoluminescence quantum yield of CN(C)c1ccc2c(c1)C(C)(C)C1=CC(=[N+](C)C)C=CC1=C2C#Cc1ccccc1 . Value?
0.148
